Target: hVR1 (Homo sapiens)
Sequence (Q8NER1 whole entry): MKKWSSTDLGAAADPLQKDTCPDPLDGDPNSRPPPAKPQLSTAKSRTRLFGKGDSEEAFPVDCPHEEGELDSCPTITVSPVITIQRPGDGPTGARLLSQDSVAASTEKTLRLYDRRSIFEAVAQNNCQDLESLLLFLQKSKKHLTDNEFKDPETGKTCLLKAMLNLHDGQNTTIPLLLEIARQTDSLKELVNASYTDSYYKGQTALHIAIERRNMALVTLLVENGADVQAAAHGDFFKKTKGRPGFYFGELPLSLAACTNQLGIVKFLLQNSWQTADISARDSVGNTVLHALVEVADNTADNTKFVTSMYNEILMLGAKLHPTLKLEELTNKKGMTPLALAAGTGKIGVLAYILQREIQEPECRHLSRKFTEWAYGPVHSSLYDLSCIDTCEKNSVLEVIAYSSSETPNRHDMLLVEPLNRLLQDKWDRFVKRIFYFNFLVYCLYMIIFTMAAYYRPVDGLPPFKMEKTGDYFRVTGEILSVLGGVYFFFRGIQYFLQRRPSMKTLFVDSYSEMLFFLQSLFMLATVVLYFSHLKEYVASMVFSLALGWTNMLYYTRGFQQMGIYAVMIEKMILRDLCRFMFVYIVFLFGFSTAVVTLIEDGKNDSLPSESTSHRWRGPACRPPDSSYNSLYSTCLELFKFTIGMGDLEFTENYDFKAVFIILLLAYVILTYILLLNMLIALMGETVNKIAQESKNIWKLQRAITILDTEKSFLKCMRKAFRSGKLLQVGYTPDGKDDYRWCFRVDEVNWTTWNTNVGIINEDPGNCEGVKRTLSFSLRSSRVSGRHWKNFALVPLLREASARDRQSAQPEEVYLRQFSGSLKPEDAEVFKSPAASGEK
Assay Text: hVR1 FLIPR (Fluorometric Image Plate Reader) screening assay
Condition Context: inhibition of capsaicin-induced intracellular calcium increase
Experimental Endpoint: IC50 (nM)

Recorded results for 2 compounds are shown here.
CC(NC(=O)Cn1cnc2cccc([N+](=O)[O-])c21)c1ccc(OC2CCCC2)nc1 (stereo not drawn) [Example 12]	5
CC[C@H](C)Oc1ccc([C@H](C)NC(=O)Cn2cnc3cccc([N+](=O)[O-])c32)cc1 [Example 15]	1

1. CC(COc1cccc(C(F)(F)F)c1)NC(=O)Cn1cnc2cccc([N+](=O)[O-])c21 (stereo not drawn) [Example 48]
2. C#CC(C)Oc1ccc([C@H](C)NC(=O)Cn2cnc3cccc([N+](=O)[O-])c32)cc1 (stereo partly drawn) [Example 4]
3. CC(NC(=O)Cn1cnc2cccc([N+](=O)[O-])c21)c1ccc(C(F)(F)Cl)cc1 (stereo not drawn) [Example 16]
Ascending sort, IC50. Reply with the labels, ordered as the question asks. 2, 1, 3

I. CC(NC(=O)Cn1cnc2cccc([N+](=O)[O-])c21)c1ccc(C(F)(F)F)cc1 (stereo not drawn) [Example 37]
II. CC(NC(=O)Cn1cnc2cccc([N+](=O)[O-])c21)c1ccc(OC2CCCC2)c(F)c1 (stereo not drawn) [Example 39]
Quick one: lower IC50, I or II ? Answer format: the label of the selected item. II

1. CC(NC(=O)Cn1cnc2cccc([N+](=O)[O-])c21)c1ccc(OC(F)(F)C(F)F)cc1 (stereo not drawn) [Example 22]
2. CO[C@@H](C)COc1ccc(C(C)NC(=O)Cn2cnc3cccc([N+](=O)[O-])c32)cc1C(F)(F)F (stereo partly drawn) [Example 47]
3. CC(NC(=O)Cn1cnc2cccc([N+](=O)[O-])c21)c1ccc(C2CC2)cc1 (stereo not drawn) [Example 40]
4. CC(C)Oc1ccc([C@H](C)NC(=O)Cn2cnc3cccc([N+](=O)[O-])c32)cc1 [Example 1]
// sort entries: IC50, high to low Reply with the labels, ordered as the question asks. 2, 1, 3, 4
(2: 8 nM, 1: 5 nM, 3: 3 nM, 4: 1 nM)

* * *

Test system: FCA-induced heat hyperalgesia
Assay Text: Freund's Complete Adjuvant (FCA) model, heat plantar test (paw withdrawal latency)
Format: in vivo
Condition Context: po, rat, orally administered, tested at Tmax
Experimental Endpoint: EC50 (nM)
A number alone suffices; assume nM.

Enter recorded EC50 with FCA-induced heat hyperalgesia for C[C@H](NC(=O)Cn1cnc2ccc(F)c(F)c21)c1ccc(C(C)(C)C)cc1 [Example 52] here. 1600

* * *

System: carrageenan-induced heat hyperalgesia
Assay Text: Carrageenan model, heat plantar test (paw withdrawal latency)
Assay type: in vivo
Condition Context: po, rat, orally administered, tested at Tmax
The compounds listed here are annotated with their pEC50.
Scale: negative log10 of molar concentration, which is what pEC50 denotes.

C[C@H](NC(=O)Cn1cnc2cccc([N+](=O)[O-])c21)c1ccc(OC(CF)CF)cc1	6.98

Below: the item to evaluate.
State its pEC50: C[C@H](NC(=O)Cn1cnc2ccc(F)c(F)c21)c1ccc(C(C)(C)C)cc1 6.30

* * *

Assay Text: aqueous solubility test
Format: physicochemical
Condition Context: aqueous medium, pH 7.4, aqueous buffer
Experimental Endpoint: solubility (µM)

P. CC(NC(=O)Cn1cnc2cccc([N+](=O)[O-])c21)c1ccc(OC2CCN(C)CC2)c(C(F)(F)F)c1 (stereo not shown)
Q. CC(NC(=O)Cn1cnc2cccc([N+](=O)[O-])c21)c1ccc(OCC(F)(F)F)cc1 (stereo not shown)
Lab note: record which item had the higher solubility, P or Q . Answer format: the label of the selected item. P

* * *

Assay Text: aqueous solubility test
Format: physicochemical
Condition Context: aqueous medium, pH 7.4, aqueous buffer
Experimental Endpoint: solubility (µM)

CC(NC(=O)Cn1cnc2cccc([N+](=O)[O-])c21)c1ccc(C(F)(F)F)cn1 (centres unmarked)	97
CC(NC(=O)Cn1cnc2cccc([N+](=O)[O-])c21)c1ncc(C(F)(F)F)cc1Cl (centres unmarked)	87
CC(NC(=O)Cn1cnc2cccc(C#N)c21)c1ccc(OC(CF)CF)cc1 (centres unmarked)	94
C#Cc1ccc(C(C)NC(=O)Cn2cnc3cccc(Cl)c32)cc1 (centres unmarked)	77
C[C@H](NC(=O)Cn1cnc2cccc([N+](=O)[O-])c21)c1ccc(OCCF)cc1	90
CC(C)Oc1ccc(C(C)NC(=O)Cn2cnc3cccc([N+](=O)[O-])c32)cn1 (centres unmarked)	86
CCOc1ccc([C@H](C)NC(=O)Cn2cnc3cccc([N+](=O)[O-])c32)cc1	72
CCC(NC(=O)Cn1cnc2cccc([N+](=O)[O-])c21)c1ccc(C(F)(F)F)cn1 (centres unmarked)	92
CC(NC(=O)Cn1cnc2cccc([N+](=O)[O-])c21)c1ccc(OCC(F)F)nc1 (centres unmarked)	98
CC(C)Oc1ccc(C(C)NC(=O)Cn2cnc3cccc(Cl)c32)cn1 (centres unmarked)	100
COCC(C)Oc1ccc([C@H](C)NC(=O)Cn2cnc3cccc([N+](=O)[O-])c32)cc1 (some centres unmarked)	97
CC(NC(=O)Cn1cnc2cccc(Cl)c21)c1ncc(C(F)(F)F)cc1Cl (centres unmarked)	87
CC(NC(=O)Cn1cnc2cccc([N+](=O)[O-])c21)c1ccc(OCC(F)F)cc1 (centres unmarked)	75
C#Cc1ccc(C(C)NC(=O)Cn2cnc3cccc([N+](=O)[O-])c32)cc1 (centres unmarked)	82
